- TARGET_OR_TEST_SYSTEM: Beta-secretase 1 (Homo sapiens)
- Sequence (P56817 whole entry): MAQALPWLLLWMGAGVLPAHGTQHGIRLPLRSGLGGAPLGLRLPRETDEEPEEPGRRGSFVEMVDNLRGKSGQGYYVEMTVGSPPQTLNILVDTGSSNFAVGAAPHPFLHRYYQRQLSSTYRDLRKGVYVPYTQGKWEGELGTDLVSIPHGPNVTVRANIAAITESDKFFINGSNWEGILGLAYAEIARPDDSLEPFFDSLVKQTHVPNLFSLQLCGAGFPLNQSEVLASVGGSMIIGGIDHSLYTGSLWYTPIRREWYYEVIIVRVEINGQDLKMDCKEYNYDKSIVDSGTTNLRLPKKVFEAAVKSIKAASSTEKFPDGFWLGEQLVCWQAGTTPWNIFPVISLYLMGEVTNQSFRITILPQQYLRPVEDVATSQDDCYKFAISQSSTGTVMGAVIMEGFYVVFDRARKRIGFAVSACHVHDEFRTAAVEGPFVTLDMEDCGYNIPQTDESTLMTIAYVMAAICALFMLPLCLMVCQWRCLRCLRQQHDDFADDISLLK
- ASSAY_COMMENT: Inhibition of BACE1 in HEK293 cells stably expressing APPSW assessed as reduction in Abeta40 level incubated overnight at 0.0005 to 10 uM by ELISA method
- Assay type: cell-based
pIC50: −log10 of the molar value.
pIC50 by entry:
PROPERTY_NAME: pIC50

> print(dat)
                             smiles.notation  property.name  test.value
 1  NC1=N[C@@]2(CO1)c1cc(-c3ncccc3F)ccc1Oc1c2cc(C2=CCCOC2)nc1F          pIC50        8.40
 2  NC1=N[C@@]2(CO1)c1cc(-c3cccnc3F)ccc1Oc1c2cc(C2=CCOCC2)nc1F          pIC50        8.40
 3  NC1=N[C@@]2(CO1)c1cc(-c3cccnc3F)ccc1Oc1c2cc(N2CCOCC2)nc1F          pIC50        8.30
 4  NC1=N[C@@]2(CO1)c1cc(-c3cccnc3F)ccc1Oc1c2cc(-c2ccccc2)nc1F          pIC50        8.10
 5  NC1=N[C@@]2(CO1)c1cc(-c3cccnc3F)ccc1Oc1c2cc(-c2ccnc(F)c2)nc1F          pIC50        8.19
 6  NC1=N[C@@]2(CO1)c1cc(-c3cccnc3F)ccc1Oc1c2cc(N2CCC(F)(F)CC2)nc1F          pIC50        8.22
 7  Cc1cc(-c2cc3c(c(F)n2)Oc2ccc(-c4cccnc4F)cc2[C@@]32COC(N)=N2)ccn1          pIC50        7.92
 8  NC1=N[C@@]2(CO1)c1cc(-c3cccnc3F)ccc1Oc1c2cc(C2=CCCCO2)nc1F          pIC50        8.32
 9  NC1=N[C@@]2(CO1)c1cc(-c3cccnc3F)ccc1Oc1c2cc(N2CCC(F)(F)C2)nc1F          pIC50        8.40
10  Cc1cc(-c2cc3c(c(F)n2)Oc2ccc(-c4cccnc4F)cc2[C@@]32COC(N)=N2)on1          pIC50        7.64
11  NC1=N[C@@]2(CO1)c1cc(-c3cccnc3F)ccc1Oc1c2cc(N2CC[C@@H](F)C2)nc1F          pIC50        8.52
